Source: paper PMC6264390

- target-or-test-system: HIV-1 IN (Human immunodeficiency virus type 1 group M subtype B, UniProt P12497)
- Construct: pre-incubated with purified recombinant IN (at a final concentration of 200 nM); made in house
- test: In vitro IN inhibition assay (3’-processing and strand transfer)
- Assay type: biochemical
- particulars: Mn2+ cofactor (7.5 mM MnCl2); read-out: Inhibition of IN catalytic activity IC50, Strand Transfer
This listing pairs compounds with measured IC50.
measure: IC50

- record-smiles: "CCN(CC)c1ccc(C=C2SC(=S)N(NC(=S)C(=O)Nc3cc(OC)c(OC)c(OC)c3)C2=O)c(O)c1"
  measured: "> 100 µM"
- record-smiles: "O=C(Nc1ccc(O)cc1)C(=S)NN1C(=O)C(=Cc2cc(Br)ccc2O)SC1=S"
  measured: "> 100 µM"
- record-smiles: "CCOc1cc(-n2cnnn2)c(OCC)cc1NC(=O)C(=S)NN1C(=O)C(=Cc2cc(OC)c(OC)c(OC)c2)SC1=S"
  measured: "> 100 µM"
